So I've got a bunch of compounds here, and I need their IC50 values.
molecular target: BRD4 BD2 (Homo sapiens, UniProt O60885, Y97A); construct: BRD4 (1-477) (Y97A) and (Y390A); made in house; host or cells: E. coli (pET15b vector); test: BRD4 BD2 mutant TR-FRET competition assay; type: binding; conditions: average of N recorded values, read-out: BRD4 BD2 IC50 (average value) (converted)
Structures can show the parent of a compound that is named as a salt.
# output: bare number, implied unit nM

State the recorded IC50 for this entry: CNC(=O)c1cc(C(=O)NCCCC2CCN(C)CC2)cn(Cc2ccccc2)c1=O [Example 7]
31.6

State the recorded IC50 for this entry: CNC(=O)c1cc(C(=O)NCCCC2CCN(CCF)CC2)cn(Cc2ccccc2)c1=O [Example 29, formic acid salt]
25.1

State the recorded IC50 for this entry: CNC(=O)c1cc(C(=O)NCCCC2CCNCC2)cn(Cc2cccc3[nH]ccc23)c1=O [Example 30]
10

State the recorded IC50 for this entry: CNC(=O)c1cc(C(=O)NCCCC2CCNCC2)cn(Cc2cccc(OCCO)c2)c1=O [Example 23]
50.1
